# ASSAY REMARKS: Tmax in CD-1 mouse at 6.5 mg/kg, iv measured at 5 to 24 hrs by LC-MS/MS analysis
# Assay type: ADME, organism-based
# MEASUREMENT CONTEXT: in vivo, time lower 5 hrs
Listed below: Tmax values for each entry.
Field note: include the unit after the figure.

MOLECULE	Tmax
CO[C@H]1/C=C/O[C@@]2(C)Oc3c(C)c(O)c4c(c3C2=O)C2NC3(CCN(CC(C)C)CC3)NC2=C(NC(=O)/C(C)=C\C=C\[C@H](C)[C@H](OC(=O)CN(C)C(=O)CNC(=O)[C@@H](N)CCCCN)[C@@H](C)[C@@H](O)[C@@H](C)[C@H](OC(C)=O)[C@@H]1C)C4=O (some centres not stated)	4.98 min

Please look at the following molecule next.
Task item: Please look up its Tmax: CO[C@H]1/C=C/O[C@@]2(C)Oc3c(C)c(O)c4c(c3C2=O)C2NC3(CCN(CC(C)C)CC3)NC2=C(NC(=O)/C(C)=C\C=C\[C@H](C)[C@H](OC(=O)CN(C)C(=O)COC(=O)CN(C)C)[C@@H](C)[C@@H](O)[C@@H](C)[C@H](OC(C)=O)[C@@H]1C)C4=O (some centres not stated)
Reply: 4.98 min

----------
# ASSAY REMARKS: Cmax in CD-1 mouse at 7 mg/kg, iv measured at 5 to 24 hrs by LC-MS/MS analysis
# Assay type: ADME, organism-based
# Parameters: dose 7 mg/kg, route iv
# MEASUREMENT CONTEXT: in vivo
OBSERVATION TYPE: Cmax (ng/mL)
Output spec: scalar in ng/mL, unitless text.

Task item: Need Cmax, item CO[C@H]1/C=C/O[C@@]2(C)Oc3c(C)c(O)c4c(c3C2=O)C2NC3(CCN(CC(C)C)CC3)NC2=C(NC(=O)/C(C)=C\C=C\[C@H](C)[C@H](OC(=O)CN(C)C(=O)CNC(=O)OCc2ccc(OP(=O)(O)O)cc2)[C@@H](C)[C@@H](O)[C@@H](C)[C@H](OC(C)=O)[C@@H]1C)C4=O (stereo partly specified)
Reply: 2700

----------
# Tested on: Staphylococcus aureus
# ASSAY REMARKS: Antibacterial activity against Staphylococcus aureus assessed as reduction in bacterial growth in CAMHB preincubated 6 hrs followed by human serum addition and measured after 20 hrs by microdilution assay
# Format: functional
# MEASUREMENT CONTEXT: time 26 hrs
Quick reference: MIC of the listed items.
Report the figure in µg/mL without appending any unit label.

Here's what some known entries look like.
MOLECULE	OBSERVATION TYPE	U	MEASURED VALUE
CO[C@H]1/C=C/O[C@@]2(C)Oc3c(C)c(O)c4c(c3C2=O)C2=NC3(CCN(CC(C)C)CC3)NC2=C(NC(=O)/C(C)=C\C=C\[C@H](C)[C@H](O)[C@@H](C)[C@@H](O)[C@@H](C)[C@H](OC(C)=O)[C@@H]1C)C4=O	MIC	µg/mL	0.03
CO[C@H]1/C=C/O[C@@]2(C)Oc3c(C)c(O)c4c(c3C2=O)C2NC3(CCN(CC(C)C)CC3)NC2=C(NC(=O)/C(C)=C\C=C\[C@H](C)[C@H](OC(=O)CN(C)C(=O)COC(=O)CN(C)C)[C@@H](C)[C@@H](O)[C@@H](C)[C@H](OC(C)=O)[C@@H]1C)C4=O (some centres undefined)	MIC	µg/mL	0.06
CO[C@H]1/C=C/O[C@@]2(C)Oc3c(C)c(O)c4c(c3C2=O)C2NC3(CCN(CC(C)C)CC3)NC2=C(NC(=O)/C(C)=C\C=C\[C@H](C)[C@H](OC(=O)CN(C)C(=O)CNC(=O)OCc2ccc(OP(=O)(O)O)cc2)[C@@H](C)[C@@H](O)[C@@H](C)[C@H](OC(C)=O)[C@@H]1C)C4=O (some centres undefined)	MIC	µg/mL	0.06

// next entry
Task item: Given the molecule CO[C@H]1/C=C/O[C@@]2(C)Oc3c(C)c(O)c4c(c3C2=O)C2NC3(CCN(CC(C)C)CC3)NC2=C(NC(=O)/C(C)=C\C=C\[C@H](C)[C@H](OC(=O)CN(C)C(=O)CNC(=O)[C@@H](N)CCCCN)[C@@H](C)[C@@H](O)[C@@H](C)[C@H](OC(C)=O)[C@@H]1C)C4=O (some centres undefined) , what is its reported MIC?
Reply: 0.06

----------
# System: Acinetobacter baumannii
# ASSAY REMARKS: Antibacterial activity against Acinetobacter baumannii assessed as reduction in bacterial growth in CAMHB preincubated 6 hrs followed by human serum addition and measured after 20 hrs by microdilution assay
# Assay type: functional
Measured MIC of individual entries
Return type: number; implicit unit ng/mL.

// known answers, use as guide
COMPOUND	MEASURED VALUE
CO[C@H]1/C=C/O[C@@]2(C)Oc3c(C)c(O)c4c(c3C2=O)C2NC3(CCN(CC(C)C)CC3)NC2=C(NC(=O)/C(C)=C\C=C\[C@H](C)[C@H](OC(=O)CN(C)C(=O)CNC(=O)OCc2ccc(OP(=O)(O)O)cc2)[C@@H](C)[C@@H](O)[C@@H](C)[C@H](OC(C)=O)[C@@H]1C)C4=O (some centres undefined)	1
CO[C@H]1/C=C/O[C@@]2(C)Oc3c(C)c(O)c4c(c3C2=O)C2NC3(CCN(CC(C)C)CC3)NC2=C(NC(=O)/C(C)=C\C=C\[C@H](C)[C@H](OC(=O)CN(C)C(=O)COC(=O)CN(C)C)[C@@H](C)[C@@H](O)[C@@H](C)[C@H](OC(C)=O)[C@@H]1C)C4=O (some centres undefined)	1
CO[C@H]1/C=C/O[C@@]2(C)Oc3c(C)c(O)c4c(c3C2=O)C2=NC3(CCN(CC(C)C)CC3)NC2=C(NC(=O)/C(C)=C\C=C\[C@H](C)[C@H](O)[C@@H](C)[C@@H](O)[C@@H](C)[C@H](OC(C)=O)[C@@H]1C)C4=O	0.25

Proceeding to the next compound to report its MIC.
Task item: Give its MIC value. Item: CO[C@H]1/C=C/O[C@@]2(C)Oc3c(C)c(O)c4c(c3C2=O)C2NC3(CCN(CC(C)C)CC3)NC2=C(NC(=O)/C(C)=C\C=C\[C@H](C)[C@H](OC(=O)CN(C)C(=O)CNC(=O)[C@@H](N)CCCCN)[C@@H](C)[C@@H](O)[C@@H](C)[C@H](OC(C)=O)[C@@H]1C)C4=O (some centres undefined)
Reply: 1

----------
# ASSAY REMARKS: AUC (0 to infinity) in CD-1 mouse at 7 mg/kg, iv measured at 5 to 24 hrs by LC-MS/MS analysis
# Format: ADME, organism-based
# Design: dose 7 mg/kg, route iv
# MEASUREMENT CONTEXT: in vivo
OBSERVATION TYPE: AUC(0-inf) (µg·h/mL)
The answer is to be given in µg·h/mL; state only the numeric part.

Task item: Form field: reported AUC(0-inf) of CO[C@H]1/C=C/O[C@@]2(C)Oc3c(C)c(O)c4c(c3C2=O)C2NC3(CCN(CC(C)C)CC3)NC2=C(NC(=O)/C(C)=C\C=C\[C@H](C)[C@H](OC(=O)CN(C)C(=O)CNC(=O)OCc2ccc(OP(=O)(O)O)cc2)[C@@H](C)[C@@H](O)[C@@H](C)[C@H](OC(C)=O)[C@@H]1C)C4=O (stereo partly specified)
Reply: 8.2

----------
# ASSAY REMARKS: Water solubility of compound in HCL by UPLC-MS analysis
# Type: physicochemical
solubility values by entry
Numeric only. Scale: mg/mL

Solved entries:
COMPOUND	U	solubility
CO[C@H]1/C=C/O[C@@]2(C)Oc3c(C)c(O)c4c(c3C2=O)C2=NC3(CCN(CC(C)C)CC3)NC2=C(NC(=O)/C(C)=C\C=C\[C@H](C)[C@H](O)[C@@H](C)[C@@H](O)[C@@H](C)[C@H](OC(C)=O)[C@@H]1C)C4=O	mg/mL	17.7
CO[C@H]1/C=C/O[C@@]2(C)Oc3c(C)c(O)c4c(c3C2=O)C2NC3(CCN(CC(C)C)CC3)NC2=C(NC(=O)/C(C)=C\C=C\[C@H](C)[C@H](OC(=O)CN(C)C(=O)CNC(=O)[C@@H](N)CCCCN)[C@@H](C)[C@@H](O)[C@@H](C)[C@H](OC(C)=O)[C@@H]1C)C4=O (stereo partly drawn)	mg/mL	34.4

Pending compound:
Task item: Which solubility is listed for CO[C@H]1/C=C/O[C@@]2(C)Oc3c(C)c(O)c4c(c3C2=O)C2NC3(CCN(CC(C)C)CC3)NC2=C(NC(=O)/C(C)=C\C=C\[C@H](C)[C@H](OC(=O)CN(C)C(=O)COC(=O)CN(C)C)[C@@H](C)[C@@H](O)[C@@H](C)[C@H](OC(C)=O)[C@@H]1C)C4=O (stereo partly drawn) ?
Reply: 12.2

----------
# ASSAY REMARKS: AUC (0 to infinity) in CD-1 mouse at 6.5 mg/kg, iv measured at 5 to 24 hrs by LC-MS/MS analysis
# Type: ADME, organism-based
# Parameters: dose 6.5 mg/kg, route iv
# MEASUREMENT CONTEXT: in vivo
OBSERVATION TYPE: AUC(0-inf) (ng·h/mL)
The answer is to be given in ng·h/mL; state only the numeric part.

COMPOUND	AUC(0-inf) (ng·h/mL)
CO[C@H]1/C=C/O[C@@]2(C)Oc3c(C)c(O)c4c(c3C2=O)C2NC3(CCN(CC(C)C)CC3)NC2=C(NC(=O)/C(C)=C\C=C\[C@H](C)[C@H](OC(=O)CN(C)C(=O)COC(=O)CN(C)C)[C@@H](C)[C@@H](O)[C@@H](C)[C@H](OC(C)=O)[C@@H]1C)C4=O (some centres not stated)	6700

Moving on to the next compound.
Task item: Consider the compound shown here: CO[C@H]1/C=C/O[C@@]2(C)Oc3c(C)c(O)c4c(c3C2=O)C2NC3(CCN(CC(C)C)CC3)NC2=C(NC(=O)/C(C)=C\C=C\[C@H](C)[C@H](OC(=O)CN(C)C(=O)CNC(=O)[C@@H](N)CCCCN)[C@@H](C)[C@@H](O)[C@@H](C)[C@H](OC(C)=O)[C@@H]1C)C4=O (some centres not stated) What is its recorded AUC(0-inf)?
Reply: 1000
